Below is a list of entries, each paired with its recorded solubility in G1/S (log2) value.
# Tested on: HeLa Kyoto
# Protocol details: solubility in G1/S (NP-40 vs SDS abundance) (log2 ratio); higher = more soluble
# Measurement setup: cell cycle stage: G1/S
Output spec: single numeric token, no unit.

Past entries and their recorded results:
MEPQEERETQVAAWLKKIFGDHPIPQYEVNPRTTEILHHLSERNRVRDRDVYLVIEDLKQKASEYESEAKYLQDLLMESVNFSPANLSSTGSRYLNALVDSAVALETKDTSLASFIPAVNDLTSDLFRTKSKSEEIKIELEKLEKNLTATLVLEKCLQEDVKKAELHLSTERAKVDNRRQNMDFLKAKSEEFRFGIKAAEEQLSARGMDASLSHQSLVALSEKLARLKQQTIPLKKKLESYLDLMPNPSLAQVKIEEAKRELDSIEAELTRRVDMMEL [HAUS1]	0.463
MSRHEGVSCDACLKGNFRGRRYKCLICYDYDLCASCYESGATTTRHTTDHPMQCILTRVDFDLYYGGEAFSVEQPQSFTCPYCGKMGYTETSLQEHVTSEHAETSTEVICPICAALPGGDPNHVTDDFAAHLTLEHRAPRDLDESSGVRHVRRMFHPGRGLGGPRARRSNMHFTSSSTGGLSSSQSSYSPSNREAMDPIAELLSQLSGVRRSAGGQLNSSGPSASQLQQLQMQLQLERQHAQAARQQLETARNATRRTNTSSVTTTITQSTATTNIANTESSQQTLQNSQFLLTRLNDPKMSETERQSMESERADRSLFVQELLLSTLVREESSSSDEDDRGEMADFGAMGCVDIMPLDVALENLNLKESNKGNEPPPPPL [KCMF1]	-0.415

Problem: Quote HeLa Kyoto solubility in G1/S (log2) for entry MCAQYCISFADVEKAHINIRDSIHLTPVLTSSILNQLTGRNLFFKCELFQKTGSFKIRGALNAVRSLVPDALERKPKAVVTHSSGNHGQALTYAAKLEGIPAYIVVPQTAPDCKKLAIQAYGASIVYCEPSDESRENVAKRVTEETEGIMVHPNQEPAVIAGQGTIALEVLNQVPLVDALVVPVGGGGMLAGIAITVKALKPSVKVYAAEPSNADDCYQSKLKGKLMPNLYPPETIADGVKSSIGLNTWPIIRDLVDDIFTVTEDEIKCATQLVWERMKLLIEPTAGVGVAAVLSQHFQTVSPEVKNICIVLSGGNVDLTSSITWVKQAERPASYQSVSV [SRR] .
Result: 0.0946

Problem: Quote HeLa Kyoto solubility in G1/S (log2) for entry MQRVSGLLSWTLSRVLWLSGLSEPGAARQPRIMEEKALEVYDLIRTIRDPEKPNTLEELEVVSESCVEVQEINEEEYLVIIRFTPTVPHCSLATLIGLCLRVKLQRCLPFKHKLEIYISEGTHSTEEDINKQINDKERVAAAMENPNLREIVEQCVLEPD [FAM96A] .
Result: 0.0285

Problem: Quote HeLa Kyoto solubility in G1/S (log2) for entry MAAARATTPADGEEPAPEAEALAAARERSSRFLSGLELVKQGAEARVFRGRFQGRAAVIKHRFPKGYRHPALEARLGRRRTVQEARALLRCRRAGISAPVVFFVDYASNCLYMEEIEGSVTVRDYIQSTMETEKTPQGLSNLAKTIGQVLARMHDEDLIHGDLTTSNMLLKPPLEQLNIVLIDFGLSFISALPEDKGVDLYVLEKAFLSTHPNTETVFEAFLKSYSTSSKKARPVLKKLDEVRLRGRKRSMVG [TP53RK] .
Result: 0.367

====

Below is a list of entries, each paired with its recorded melting temperature value.
# Test system: HeLa Kyoto
# Protocol details: melting temperature (median over replicates), in situ; higher = more thermally stable
# Measurement setup: cell cycle stage: mitosis
Response body: numeric value in °C, unit text excluded.

Past entries and their recorded results:
MARGQQKIQSQQKNAKKQAGQKKKQGHDQKAAAKAALIYTCTVCRTQMPDPKTFKQHFESKHPKTPLPPELADVQA [ZNF706]	54.1
MATQAHSLSYAGCNFLRQRLVLSTLSGRPVKIRKIRARDDNPGLRDFEASFIRLLDKITNGSRIEINQTGTTLYYQPGLLYGGSVEHDCSVLRGIGYYLESLLCLAPFMKHPLKIVLRGVTNDQVDPSVDVLKATALPLLKQFGIDGESFELKIVRRGMPPGGGGEVVFSCPVRKVLKPIQLTDPGKIKRIRGMAYSVRVSPQMANRIVDSARSILNKFIPDIYIYTDHMKGVNSGKSPGFGLSLVAETTSGTFLSAELASNPQGQGAAVLPEDLGRNCARLLLEEIYRGGCVDSTNQSLALLLMTLGQQDVSKVLLGPLSPYTIEFLRHLKSFFQIMFKIETKPCGEELKGGDKVLMTCVGIGFSNLSKTLK [RCL1]	52.3
MEQPWPPPGPWSLPRAEGEAEEESDFDVFPSSPRCPQLPGGGAQMYSHGIELACQKQKEFVKSSVACKWNLAEAQQKLGSLALHNSESLDQEHAKAQTAVSELRQREEEWRQKEEALVQREKMCLWSTDAISKDVFNKSFINQDKRKDTEDEDKSESFMQKYEQKIRHFGMLSRWDDSQRFLSDHPYLVCEETAKYLILWCFHLEAEKKGALMEQIAHQAVVMQFIMEMAKNCNVDPRGCFRLFFQKAKAEEEGYFEAFKNELEAFKSRVRLYSQSQSFQPMTVQNHVPHSGVGSIGLLESLPQNPDYLQYSISTALCSLNSVVHKEDDEPKMMDTV [CDC37L1]	50.9
MAHVGSRKRSRSRSRSRGRGSEKRKKKSRKDTSRNCSASTSQGRKASTAPGAEASPSPCITERSKQKARRRTRSSSSSSSSSSSSSSSSSSSSSSSSSDGRKKRGKYKDKRRKKKKKRKKLKKKGKEKAEAQQVEALPGPSLDQWHRSAGEEEDGPVLTDEQKSRIQAMKPMTKEEWDARQSIIRKVVDPETGRTRLIKGDGEVLEEIVTKERHREINKQATRGDCLAFQMRAGLLP [ARL6IP4]	52

// next item, melting temperature requested
Problem: // Input: MVLSELAARLNCAEYKNWVKAGHCLLLLRSCLQGFVGREVLSFHRGLLAAAPGLGPRAVCRGGSRCSPRARQFQPQCQVCAEWKREILRHHVNRNGDVHWGNCRPGRWPVDAWEVAKAFMPRGLADKQGPEECDAVALLSLINSCDHFVVDRKKVTEVIKCRNEIMHSSEMKVSSTWLRDFQMKIQNFLNEFKNIPEIVAVYSRIEQLLTSDWAVHIPEEDQRDGCECEMGTYLSESQVNEIEMQLLKEKLQEIYLQAEEQEVLPEELSNRLEVVKEFLRNNEDLRNGLTEDMQKLDSLCLHQKLDSQEPGRQTPDRKA [CXORF38] . Output its melting temperature only.
Result: 52.1

====

# Test system: HeLa Kyoto
# Protocol details: solubility in G1/S (NP-40 vs SDS abundance) (log2 ratio); higher = more soluble
# Measurement setup: cell cycle stage: G1/S
Recorded metric: solubility in G1/S (log2)
Output spec: single numeric token, no unit.

MAAQKINEGLEHLAKAEKYLKTGFLKWKPDYDSAASEYGKAAVAFKNAKQFEQAKDACLREAVAHENNRALFHAAKAYEQAGMMLKEMQKLPEAVQLIEKASMMYLENGTPDTAAMALERAGKLIENVDPEKAVQLYQQTANVFENEERLRQAVELLGKASRLLVRGRRFDEAALSIQKEKNIYKEIENYPTCYKKTIAQVLVHLHRNDYVAAERCVRESYSIPGFNGSEDCAALEQLLEGYDQQDQDQVSDVCNSPLFKYMDNDYAKLGLSLVVPGGGIKKKSPATPQAKPDGVTATAADEEEDEYSGGLC [NAPG]	0.528

Problem: // Input: MASGVTVNDEVIKVFNDMKVRKSSTQEEIKKRKKAVLFCLSDDKRQIIVEEAKQILVGDIGDTVEDPYTSFVKLLPLNDCRYALYDATYETKESKKEDLVFIFWAPESAPLKSKMIYASSKDAIKKKFTGIKHEWQVNGLDDIKDRSTLGEKLGGNVVVSLEGKPL [CFL2] . Output its solubility in G1/S (log2) only.
Result: 0.129

====

Below is a list of entries, each paired with its recorded solubility in G1/S (log2) value.
# Tested on: HeLa Kyoto
# Protocol details: solubility in G1/S (NP-40 vs SDS abundance) (log2 ratio); higher = more soluble
# Measurement setup: cell cycle stage: G1/S
Output spec: single numeric token, no unit.

MLRSCAARLRTLGALCLPPVGRRLPGSEPRPELRSFSSEEVILKDCSVPNPSWNKDLRLLFDQFMKKCEDGSWKRLPSYKRTPTEWIQDFKTHFLDPKLMKEEQMSQAQLFTRSFDDGLGFEYVMFYNDIEKRMVCLFQGGPYLEGPPGFIHGGAIATMIDATVGMCAMMAGGIVMTANLNINYKRPIPLCSVVMINSQLDKVEGRKFFVSCNVQSVDEKTLYSEATSLFIKLNPAKSLT [THEM4]	0.0285
MEGMDVDLDPELMQKFSCLGTTDKDVLISEFQRLLGFQLNPAGCAFFLDMTNWNLQAAIGAYYDFESPNISVPSMSFVEDVTIGEGESIPPDTQFVKTWRIQNSGAEAWPPGVCLKYVGGDQFGHVNMVMVRSLEPQEIADVSVQMCSPSRAGMYQGQWRMCTATGLYYGDVIWVILSVEVGGLLGVTQQLSSFETEFNTQPHRKVEGNFNPFASPQKNRQSDENNLKDPGGSEFDSISKNTWAPAPDTWAPAPDQTEQDQNRLSQNSVNLSPSSHANNLSVVTYSKGLHGPYPFGQS [C6ORF106]	0.214

Problem: // Input: MFGPAKGRHFGVHPAPGFPGGVSQQAAGTKAGPAGAWPVGSRTDTMWRLRCKAKDGTHVLQGLSSRTRVRELQGQIAAITGIAPGGQRILVGYPPECLDLSNGDTILEDLPIQSGDMLIIEEDQTRPRSSPAFTKRGASSYVRETLPVLTRTVVPADNSCLFTSVYYVVEGGVLNPACAPEMRRLIAQIVASDPDFYSEAILGKTNQEYCDWIKRDDTWGGAIEISILSKFYQCEICVVDTQTVRIDRFGEDAGYTKRVLLIYDGIHYDPLQRNFPDPDTPPLTIFSSNDDIVLVQALELADEARRRRQFTDVNRFTLRCMVCQKGLTGQAEAREHAKETGHTNFGEV [YOD1] . Output its solubility in G1/S (log2) only.
Result: 0.0787

Problem: // Input: MSAARESHPHGVKRSASPDDDLGSSNWEAADLGNEERKQKFLRLMGAGKKEHTGRLVIGDHKSTSHFRTGEEDKKINEELESQYQQSMDSKLSGRYRRHCGLGFSEVEDHDGEGDVAGDDDDDDDDSPDPESPDDSESDSESEKEESAEELQAAEHPDEVEDPKNKKDAKSNYKMMFVKSSGS [SMAP] . Output its solubility in G1/S (log2) only.
Result: 0.338

Problem: // Input: MPKRKAAGQGDMRQEPKRRSARLSAMLVPVTPEVKPKRTSSSRKMKTKSDMMEENIDTSAQAVAETKQEAVVEEDYNENAKNGEAKITEAPASEKEIVEVKEENIEDATEKGGEKKEAVAAEVKNEEEDQKEDEEDQNEEKGEAGKEDKDEKGEEDGKEDKNGNEKGEDAKEKEDGKKGEDGKGNGEDGKEKGEDEKEEEDRKETGDGKENEDGKEKGDKKEGKDVKVKEDEKEREDGKEDEGGNEEEAGKEKEDLKEEEEGKEEDEIKEDDGKKEEPQSIV [HMGN5] . Output its solubility in G1/S (log2) only.
Result: 0.255
